Test: solvent given as SMILES
Conditions: in CC(C)CC(C)(C)C
Each entry below lists one item and its recorded solvation free energy, 298 K value.
Provide only the numeric value, understood in kcal/mol.

input: Look up solvation free energy, 298 K: `Clc1c(Cl)c(Cl)c(Cl)c(Cl)c1Cl`
output: -10

input: Look up solvation free energy, 298 K: `CCCCN(CC)N=O`
output: -6.49

input: Look up solvation free energy, 298 K: `CCCCCN(CCCCC)N=O`
output: -9.29

input: Look up solvation free energy, 298 K: `CCS`
output: -3.13

input: Look up solvation free energy, 298 K: `CCCCC=O`
output: -4.24
